Assay: chemical genetic growth profiling, strain panel (AID 1159580);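 further: tested at 20 µM; growth read once vehicle control cultures reached saturation at 30 °C; lower values mean less growth of the strain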
Conditions: S. cerevisiae deletion strains, growth OD, locus YHR079C, strain IRE1, hits give low values
About 2,000 (36%) of roughly 5,500 compounds were called active. About 18% were inconclusive and are not listed. This is one part of the list.
Criterion met if normalized growth is below 1. Criterion not met if not; exact matches included in Criterion not met.

Incoming: Please state whether normalized growth is below 1 for CCCCc1ccc(N=CNO)c(C)c1
Outgoing: Criterion met

Incoming: Moving on to the next compound: O=C(NCc1ccc(F)c(Cl)c1)Nc1csc([N+](=O)[O-])c1
Outgoing: Criterion met

Incoming: What do we get for CC(=O)OCC(=O)[C@@]1(O)CCC2C3CCC4=CC(=O)C=C[C@]4(C)[C@@]3(F)[C@@H](O)C[C@@]21C (stereo partly drawn) ?
Outgoing: Criterion not met

Incoming: Same lookup for N#C/C(=C\c1ccc(O)cc1)C(=O)O , please.
Outgoing: Criterion not met

Incoming: Moving on to the next compound: O=C(SCc1c(Cl)cccc1Cl)c1ccc([N+](=O)[O-])o1
Outgoing: Criterion met

Incoming: Would you mind doing O=C1CSC(=Nc2cc(Cl)cc(Cl)c2)N1Cc1cccnc1 as well?
Outgoing: Criterion not met

Incoming: Similarly, C(=NC(N=Cc1ccccc1)c1ccccc1)c1ccccc1 (stereo not drawn) ?
Outgoing: Criterion met

Incoming: Also check C[N+]1(C)CCc2cc3c(cc2[C@H]1C1OC(=O)c2c1ccc1c2OCO1)OCO3 (stereo partly drawn)
Outgoing: Criterion not met

Incoming: O=C(NNc1c(Cl)cccc1Cl)c1ccc([N+](=O)[O-])o1 ?
Outgoing: Criterion met

Incoming: What do you get for FC(F)(F)COCC(F)(F)F ?
Outgoing: Criterion met

Incoming: Repeat for the following compound: O=C(Nc1ccc(Cl)cc1)c1csc([N+](=O)[O-])c1
Outgoing: Criterion met

Incoming: Note, next up: O=C(N/N=C\c1ccc([N+](=O)[O-])o1)c1ccc(O)cc1
Outgoing: Criterion met

Incoming: Another compound to check: CCN(CC)CCNC(=O)COc1ccc(OC)cc1
Outgoing: Criterion met

Incoming: Follow-up entry: C[N+]1(C)C2CC[C@H]1CC(OC(=O)C(O)c1ccccc1)C2 (stereo partly drawn)
Outgoing: Criterion met

Incoming: Could you do the same for CCCCCc1ccc(-c2nc(SCC(C)=O)n[nH]2)cc1 , please?
Outgoing: Criterion met

Incoming: Please answer likewise for Cc1ncc([N+](=O)[O-])n1CCO
Outgoing: Criterion not met

Incoming: Same question, CCS(=O)(=O)CCn1c([N+](=O)[O-])cnc1C this time
Outgoing: Criterion met
